I'd appreciate it if you could supply composite z-score values for the items below.
- Tested on: PRMT1 (protein arginine N-methyltransferase 1)
- Experimental details: PRMT1 binders on small-molecule microarrays, primary screen, biochemical, small-molecule microarray, 635 nm fluorescence (AID 1088);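 further: binding of Prmt1 protein to compounds spotted on small-molecule microarray slides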
- Settings: small-molecule microarray binding, higher = more signal

Solved entries:
COc1ccc(O[C@H]2C=C[C@@H](c3ccccc3)O[C@@H]2COC(=O)CCC(C)=NOC(C)CN2CCCc3nc(C)c(C)cc32)cc1 (stereo partly specified) ... 1.35
C[C@@H](c1ccccc1)N1C(=O)[C@H]2[C@H]3[C@H](O)[C@H](O)CC(=NO[C@@H]4O[C@H](CO)[C@@H](O)[C@H](O)[C@H]4O)[C@@H]3CC[C@H]2C1=O ... 0.0967
COc1ccc(COC(=O)NN=C2C[C@@H](O)[C@@H](O)[C@@H]3[C@@H]4C(=O)N(Cc5ccccc5)C(=O)[C@@H]4CC[C@H]23)cc1 ... 0.413
O=C(NN=C1C[C@@H](O)[C@@H](O)[C@@H]2[C@@H]3C(=O)N(C[C@@H]4CCCO4)C(=O)[C@@H]3CC[C@@H]12)OCc1ccccc1 ... 1.04

State the recorded composite z-score for every item in the following list.
1. CCOC(=O)[C@H](CC(C)C)NC(=O)CCC1CC(OC(=O)NCc2cccc3ccccc23)CC2(CCCC(COC(=O)NCCOc3ccccc3)O2)O1 (stereo partly specified)
2. Cc1cc2c(nc1C)CCCCN2CC(C)ON=C1[C@H]2CCn3c(=O)n(-c4ccccc4)c(=O)n3[C@H]2[C@H](O)[C@@H]2O[C@H]12 (stereo partly specified)
3. CCOC(=O)CCN1C(=O)[C@H]2[C@H]3[C@H](O)[C@H](O)CC(=NNC(=O)OCc4ccccc4)[C@@H]3CC[C@H]2C1=O

Reply text:
1: 1.54; 2: 0.208; 3: 1.05

State the recorded composite z-score for every item in the following list.
1. CO[C@@H]1C=CCC(=O)N[C@@H](C)C(=O)OC[C@@H](OC)[C@H](C)CCCC(=O)OC[C@H]1C
2. CCOC(=O)[C@H](Cc1ccccc1)NC(=O)CCC1CC(OC(=O)NCCc2ccc(F)cc2)CC2(CCCC(COC(=O)NCC3CCCCC3)O2)O1 (stereo partly specified)

Reply text:
[1.44, 1.55]

State the recorded composite z-score for every item in the following list.
1. CCOC(=O)[C@H](CC(C)C)NC(=O)CCC1CC(OC(=O)NCc2ccc3c(c2)OCO3)CC2(CCCC(COC(=O)NCCCN3CCCC3=O)O2)O1 (stereo partly specified)
2. COc1ccc(O[C@@H]2[C@H](O)CO[C@H]2C=Cc2ccccc2)cc1
3. COc1cccc([C@H]2Oc3ccc(OC)cc3C(=NO[C@@H](C)c3cn([C@H](CO)Cc4ccccc4)nn3)[C@@H]2O)c1
4. C[C@@H]1CC[C@H]2C(=O)O[C@@H](COc3ccc(C(C)(C)C)cc3)CN2[C@@H]1c1ccc(Br)cc1
5. COC(=O)C1=C(C)N(Cc2ccccc2)[C@]23O[C@](C(=O)OC)(C(=O)N2[C@@H]1c1ccccc1)C(C(=O)OC)=C3C(=O)OC

Reply text:
1.49
0.619
0.0733
-0.118
1.36

State the recorded composite z-score for every item in the following list.
1. COC(=O)CC=C[C@@H](C)[C@@H](C=NO[C@H](C)c1cn([C@H](CO)Cc2ccccc2)nn1)OC
2. CCOC(=O)NN=C1C[C@@H](O)[C@@H](O)[C@@H]2[C@@H]3C(=O)N(c4ccc(F)cc4F)C(=O)[C@@H]3CC[C@@H]12
3. CCOC(=O)[C@H](CC(C)C)NC(=O)CCC1CC(OC(=O)NCc2cccc3ccccc23)CC2(CCCC(COC(=O)NCCC(C)C)O2)O1 (stereo partly specified)
4. O=C(NN=C1C[C@@H](O)[C@@H](O)[C@@H]2[C@@H]3C(=O)N(Cc4ccccc4)C(=O)[C@@H]3CC[C@@H]12)OCc1ccccc1
5. CC(C)(C)N1C(=O)[C@H]2[C@H]3[C@H](O)[C@H](O)CC(=O)[C@H]3CC[C@H]2C1=O
6. CO[C@H](C1CCCCC1)[C@H](C)C=CCC(=O)OCCCc1ccccc1
7. C#CCCCON=C1C[C@@H](O)[C@@H](O)[C@@H]2[C@@H]3C(=O)N(c4cccc(Oc5ccccc5)c4)C(=O)[C@@H]3CC[C@H]12

Reply text:
[1.14, -0.009, 0.554, -0.395, 0.729, -0.53, -0.684]

Value source: PubChem BioAssay
